Assay: Inhibition of human carbonic anhydrase 2 using 4-nitrophenyl acetate as substrate after 20 mins by spectrophotometric analysis
QUANTITY NAME: IC50

* O=C(NNC(=S)Nc1ccc(Cl)c(Cl)c1)c1ccccc1O | 29 nM

----------
Assay: Inhibition of human MAOA using kynuramine as substrate after 20 mins by spectrophotometric analysis
QUANTITY NAME: IC50 (nM)

• O=C(NNC(=S)Nc1ccc(Cl)c(Cl)c1)c1ccccc1O = 40

----------
Assay: Inhibition of human recombinant Lck using Ulight-Poly GAT[EAY(1:1:1)]n as substrate after 10 mins by LANCE analysis
QUANTITY NAME: IC50 (nM)

* O=C(NNC(=S)Nc1ccc(Cl)c(Cl)c1)c1ccccc1O | 31

----------
Assay: Inhibition of human recombinant acetylcholinesterase using acetylthiocholine as substrate after 30 mins by spectrophotometric analysis
QUANTITY NAME: IC50 (nM)

- O=C(NNC(=S)Nc1ccc(Cl)c(Cl)c1)c1ccccc1O: 520

----------
Assay: Inhibition of human recombinant C-terminal His-tagged PHGDH (1 to 533 residues) expressed in Escherichia coli using 3-phosphoglycerate as substrate
QUANTITY NAME: IC50

- O=C(NNC(=S)Nc1ccc(Cl)c(Cl)c1)c1ccccc1O: 8.7 µM

----------
Test: Displacement of [3H]muscimol from recombinant human GABAalpha1beta2gamma2 measured after 120 mins by scintillation counting method
pIC50: −log10 of the molar value.
QUANTITY NAME: pIC50

• O=C(NNC(=S)Nc1ccc(Cl)c(Cl)c1)c1ccccc1O = 7.12

----------
Experiment: Inhibition of human IDO using L-tryptophan as substrate after 30 mins by Ehrlich's reagent based assay
pIC50: −log10 of the molar value.
QUANTITY NAME: pIC50

* O=C(NNC(=S)Nc1ccc(Cl)c(Cl)c1)c1ccccc1O | 4.43

----------
Assay: Inhibition of human recombinant PDE3A using [3H]cAMP after 20 mins by scintillation counting analysis
pIC50: −log10 of the molar value.
QUANTITY NAME: pIC50

- O=C(NNC(=S)Nc1ccc(Cl)c(Cl)c1)c1ccccc1O: 6.31

----------
Assay: Displacement of [3H]8-OH-DPAT from recombinant human 5-HT1A receptor after 60 mins by scintillation counting analysis
pIC50: −log10 of the molar value.
QUANTITY NAME: pIC50

* O=C(NNC(=S)Nc1ccc(Cl)c(Cl)c1)c1ccccc1O | 9.22

----------
Assay: Inhibition of human thrombin using Z-GPR-AMC as substrate after 30 mins by fluorimetric analysis
QUANTITY NAME: IC50 (nM)

- O=C(NNC(=S)Nc1ccc(Cl)c(Cl)c1)c1ccccc1O: 0.103
